- Test system: G402
- assay-comment: CellTiter-Glo cell viability assay
- Format: cell-based
- condition-info: Homo sapiens, G-402; G402, RENAL, Renal leiomyoblastoma, 72 hours
measured-parameter: pIC50
Friendly reminder that pIC50 comes from taking -log10 of the concentration in mol/L.

// below: answered compounds
| compound | pIC50 |
| --- | --- |
| CC[C@@H](C(=O)Nc1ncc(C(=O)NO)s1)c1ccc(OC)cc1 | 6.30 |
| CC[C@H](C(=O)Nc1ncc(C(=O)NO)s1)c1ccc(OC)cc1 | 7.19 |

Bench note: what pIC50 did CCC(C(=O)Nc1ncc(C(=O)NO)s1)c1ccc(OC)cc1 (racemic) show?
6.99
